Tested on: NF-κB
Assay: EMSA of NF-κB translocation / DNA binding in A549 cells
Settings: A549 cells, 1 μg/ml, 45 min, EMSA of whole cell extracts
attribute-measured: NF-κB Stimulation

Asked: Check the records and state NF-κB Stimulation for C: flagellin N-terminus (56-100), SEQ ID NO: 24 (protein, Salmonella dublin) MRGSHHHHHHGMASMTGGQQMGRDLYDDDDKDPFTSNIKGLTQASRNANDGISIAQTTEGALNEINNNLQRVRELSVQATSPG
Given back: No

Asked: Check the records and state NF-κB Stimulation for CB′: flagellin fragment (56-100)-Linker-(402-450), SEQ ID NO: 18 (protein, Salmonella dublin) MRGSHHHHHHGMASMTGGQQMGRDLYDDDDKDPFTSNIKGLTQASRNANDGISIAQTTEGALNEINNNLQRVRELSVQATSPGISGGGGGILDSMGTLINEDAAAAKKSTANPLASIDSALSKVDAVRSSLGAIQNRFDSAITNL
Given back: No

Asked: Check the records and state NF-κB Stimulation for AB′n1-70: flagellin variant N-terminal 1-70, C-terminal 402-450, SEQ ID NO: 56 (protein, Salmonella dublin) MRGSHHHHHHGMASMTGGQQMGRDLYDDDDKDPMAQVINTNSLSLLTQNNLNKSQSSLSSAIERLSSGLRINSAKDDAAGQAIANRFTSNIKGLTQASRNANDIPGISGGGGGILDSMGTLINEDAAAAKKSTANPLASIDSALSKVDAVRSSLGAIQNRFDSAITNL
Given back: No

Asked: Check the records and state NF-κB Stimulation for AB′: flagellin fragment (1-177)-Linker-(402-450), SEQ ID NO: 10 (protein, Salmonella dublin) MRGSHHHHHHGMASMTGGQQMGRDLYDDDDKDPMAQVINTNSLSLLTQNNLNKSQSSLSSAIERLSSGLRINSAKDDAAGQAIANRFTSNIKGLTQASRNANDGISIAQTTEGALNEINNNLQRVRELSVQATNGTNSDSDLKSIQDEIQQRLEEIDRVSNQTQFNGVKVLSQDNQMKIQVGANDGETITIDLQKIDVKSLGLDGFNVNSPGISGGGGGILDSMGTLINEDAAAAKKSTANPLASIDSALSKVDAVRSSLGAIQNRFDSAITNL
Given back: Yes

Further cases:
Asked: Check the records and state NF-κB Stimulation for B: flagellin N-terminus (56-177), SEQ ID NO: 22 (protein, Salmonella dublin) MRGSHHHHHHGMASMTGGQQMGRDLYDDDDKDPFTSNIKGLTQASRNANDGISIAQTTEGALNEINNNLQRVRELSVQATNGTNSDSDLKSIQDEIQQRLEEIDRVSNQTQFNGVKVLSQDNQMKIQVGANDGETITIDLQKIDVKSLGLDGFNVNSPG
Given back: No
